- Tested on: COR-L 105
- experimental_protocol: relative viability (nuclei count vs DMSO), 5 days (fraction); higher = more cells survive
- conditions_used: first compound 0.05 µM
metric_name: relative viability
One number for each entry.

See these solved cases before continuing.
compound="CC1(C)CCC(c2ccc(Cl)cc2)=C(CN2CCN(c3ccc(C(=O)NS(=O)(=O)c4ccc(N[C@H](CCN5CCOCC5)CSc5ccccc5)c(S(=O)(=O)C(F)(F)F)c4)cc3)CC2)C1 [Navitoclax] + C[C@]1(O)C[C@@H](c2nc(-c3ccc4ccc(-c5ccccc5)nc4c3)c3c(N)nccn32)C1 [Linsitinib] (partner 1 µM)" test_system="COR-L 105" measured_number=1.05
compound="CC1(C)CCC(c2ccc(Cl)cc2)=C(CN2CCN(c3ccc(C(=O)NS(=O)(=O)c4ccc(N[C@H](CCN5CCOCC5)CSc5ccccc5)c(S(=O)(=O)C(F)(F)F)c4)cc3)CC2)C1 [Navitoclax] + Cc1nc(Nc2ncc(C(=O)Nc3c(C)cccc3Cl)s2)cc(N2CCN(CCO)CC2)n1 [Dasatinib] (partner 0.075 µM)" test_system="COR-L 105" measured_number=0.331

Could you now look at the following compound, please?
Entry CC1(C)CCC(c2ccc(Cl)cc2)=C(CN2CCN(c3ccc(C(=O)NS(=O)(=O)c4ccc(N[C@H](CCN5CCOCC5)CSc5ccccc5)c(S(=O)(=O)C(F)(F)F)c4)cc3)CC2)C1 [Navitoclax] + CS(=O)(=O)CCNCc1ccc(-c2ccc3ncnc(Nc4ccc(OCc5cccc(F)c5)c(Cl)c4)c3c2)o1 [Lapatinib] (partner 2 µM) ; relative viability = 0.307
